Numbers sourced from the supplement of paper PMC10567573.

B1: PCMTD2 (parent)
chain: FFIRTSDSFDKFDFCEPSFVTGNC

Variants of: B1
Test: protein stability index of a GFP-peptide fusion (GPS, HEK-293T) (PSI 1-6); higher = more stable;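 also: lentivirally expressed fusions sorted by FACS into six bins by GFP to DsRed ratio, PSI derived from sequencing read proportions per bin multiplied by bin number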
Settings: c terminus: a fixed tail appended
MEASURE: protein stability index

Recorded results for 4 variants are shown here.
> print(dat)
   mutation.descriptor                  measure  measured.value
1                 C15M  protein stability index            1.98
2                 F14E  protein stability index               2
3                 C15V  protein stability index            2.05
4                 P17G  protein stability index            2.03

Could you now look at the following variant, please?
Respond only with protein stability index recorded for `F14V` 2.05
